System: SF-268 CNS
measurement_notes: NCI tumour cell line growth inhibition, 48 h
property_measured: TGI

Below, 5 compounds whose answers are already recorded.
{"columns": ["compound", "tested_system", "TGI"],
 "data": [
  ["COC1O[C@@H]2C[C@H]3C(C)(C)CCC[C@]3(C)C3=CCCC1[C@@]32C (stereo not given in full)", "SF-268 CNS", "> 100 µM"],
  ["Cc1ccc(NC(=O)c2ccccc2C(=O)O)cc1C", "SF-268 CNS", "> 100 µM"],
  ["COc1ccc(CSc2ccccc2Cn2cccc2)cc1OC", "SF-268 CNS", "> 100 µM"],
  ["Cc1ccc(S(=O)OC2C3CC4CC(C3)CC2C4)cc1 (stereo not given)", "SF-268 CNS", "> 100 µM"],
  ["COC(=O)C1=C(C)N2[C@H](C(=O)O)CO[C@@]2(C)[C@H](C(=O)OC)[C@H]1c1cccc([N+](=O)[O-])c1", "SF-268 CNS", "> 100 µM"]
]}

Please supply TGI for each of the following items, keeping them in order.
1. COc1ccc2oc(=N)c(C(=O)Nc3ccccn3)cc2c1
2. Fc1cccc(C2SCc3nc4ccccc4n32)c1F (stereo not given)
3. Cc1cccc(NC(=O)c2sc3nc4c(cc3c2N)CN(Cc2ccccc2)CC4)c1C
4. COc1ccc(OC)c(Cn2cc3c(c2)-c2oncc2CC3)c1
5. CCC[C@H](C)C[C@H](C)C[C@H](C)/C=C(\C)[C@@H](O)[C@@H](C)C(=O)CC

["> 100 µM", "> 100 µM", "> 50 µM", "> 100 µM", "39.6 µM"]

---

Tested on: SK-OV-3 ovarian
measurement_notes: NCI tumour cell line growth inhibition, 48 h
For each of the compounds below, state its TGI.

Solved cases below.
{"columns": ["compound", "TGI"],
 "data": [
  ["C=CCOC(=O)C1C2OC3(C(C(=O)OC)=C2C(=O)OC)c2ccccc2CCC13 (configuration not stated)", "> 10 µM"],
  ["CC(C)[C@@H]1ON1C(C)c1ccccc1 (some centres not stated)", "> 100 µM"],
  ["Nc1ccccc1SCc1csc(-c2ccc(Cl)cc2)n1", "> 89.6 µM"],
  ["COc1cc2c(c(OC)c1OC)-c1ccc(SC)c(=O)cc1[C@@H](NC1OC(CO)C(O)C(O)C1O)CC2 (some centres not stated)", "> 100 µM"],
  ["Cc1ccc2nc(NC(=O)/C(Cc3nc4ccc(Cl)cc4[nH]c3=O)=N\\NC(C)(C)C)sc2c1", "> 100 µM"],
  ["CCN(Cc1ccc(Cl)s1)c1ccc(CO)c(Cl)c1", "18.2 µM"],
  ["O=C(O)CNC(=O)c1c2ccccc2nc2ccccc12", "> 100 µM"],
  ["COC(=O)C1=C(OC(=O)c2ccccc2)C(C(=O)OC)[C@]2(O)[C@@H](C(=O)OC)[C@H]1C[C@@H](c1ccccc1)[C@@H]2C(=O)OC (some centres not stated)", "48.3 µM"],
  ["Fc1ccccc1C1SCc2nc3cc4ccccc4cc3n21 (configuration not stated)", "> 100 µM"],
  ["COC(CN1C=C(Sc2ccccc2)CC1)OC", "93 µM"]
]}

Record TGI per entry; entries follow.
1. CCCCn1c(=O)c2c(nc3n2CCCN3CCc2ccc(OCC(=O)NCCN(CC)CC)cc2)n(CCCC)c1=O
2. CN1CCC(n2cnc(-c3ccc(F)cc3)c2-c2ccnc(N)n2)CC1
3. CC(=O)c1c(C(F)(F)F)n([O-])c2ccc(C)cc2[n+]1=O
4. COc1nc(N)c(N=CC(OC(C)=O)C(OC(C)=O)C(COC(C)=O)OC(C)=O)c(=O)n1C (configuration not stated)
5. C[CH2][Pb]([CH2]C)([CH2]C)[O]C(=O)c1ccc2ccccc2n1

12.6 µM
> 25 µM
> 100 µM
> 100 µM
> 10 µM

// each compound listed below needs its TGI
1. COc1ccc(-c2cc(=O)c3c(OC)c(OC)c(OC)c(OC)c3o2)cc1
2. COc1ccc2c(c1OC)C(=O)OC2C1c2c(c([N+](=O)[O-])c3c(c2OC)OCO3)CCN1C (configuration not stated)

> 100 µM
> 100 µM

---

System: HL-60(TB) leukemia
measurement_notes: NCI tumour cell line growth inhibition, 48 h; in the data active means GI50 below about 0.43 µM; inactive means the rest
Answer with one of the outcomes given here: y for active, n for inactive

{"columns": ["mol", "class_assignment"],
 "data": [
  ["O=C([CH-]C(=O)c1ccccc1)c1ccccc1.O=C([CH-]C(=O)c1ccccc1)c1ccccc1.[OH-].[OH-].[Ti+4]", "n"],
  ["CC(=O)Oc1ccccc1C(=O)/C=C/c1cccc([N+](=O)[O-])c1", "n"],
  ["Cc1c(C2=C(c3cn(C)c4ccccc34)C(=O)NC2=O)c2ccccc2n1C", "n"],
  ["COC(=O)c1nc(-c2ccccc2)oc1S(=O)(=O)n1nc(C)cc1N", "n"]
]}

Please look at the following molecule next.
Look up the recorded call for `CC1(C)N=C(N)N=C(N)N1c1ccc(CCCCc2ccc(S(=O)(=O)F)cc2)c(Cl)c1` in this test.
y

---

Tested on: TK-10 renal
measurement_notes: NCI tumour cell line growth inhibition, 48 h; in the data active = GI50 below about 0.43 µM; inactive = the rest
Response enum: YES (active), NO (inactive)

{"columns": ["molecule", "tested_system", "class_assignment"],
 "data": [
  ["N#CN1CC[C@H](C(=O)Nc2ncc(-c3ccncc3)s2)C1", "TK-10 renal", "YES"],
  ["COc1ccc(C(=O)N2c3ccccc3Sc3ccccc32)c(OC)c1", "TK-10 renal", "NO"],
  ["O=C(Nc1cccc(Nc2ncc(Br)c(NCCc3cnc[nH]3)n2)c1)N1CCCC1", "TK-10 renal", "NO"],
  ["Cc1nc2ccccc2c(/C=C/c2ccc(Br)cc2)c1C(=O)/C=C/c1ccccc1", "TK-10 renal", "NO"],
  ["O=C([CH-]C(=O)c1ccccc1)c1ccccc1.O=C([CH-]C(=O)c1ccccc1)c1ccccc1.[OH-].[OH-].[Ti+4]", "TK-10 renal", "NO"]
]}

Identify the outcome logged in this assay for the molecule shown: `O=[N+]([O-])c1cc(S(=O)(=O)Oc2ccccc2)ccc1Cl`
NO

Param item: `O=C1NC(=O)C(c2cccc(Cl)c2)=C1Nc1ccc(O)c(Cl)c1`
NO

Same question for O=c1[nH]cnc2c(C3NC(CO)C(O)C3O)c[nH]c12 (stereo not drawn) please.
NO

---

System: NCI-H226 lung
measurement_notes: NCI tumour cell line growth inhibition, 48 h
Could you please report measured TGI for the items listed next?

{"columns": ["compound", "TGI"],
 "data": [
  ["Fc1cccc(C2SCc3nc4ccccc4n32)c1F (configuration not stated)", "> 100 µM"],
  ["N/N=C1\\CC(=O)NC(=O)N1", "> 100 µM"],
  ["C/C(=C/CC[C@]1(CO)CC[C@]2(CO)[C@H](CC[C@@H]3[C@@]4(C)CC[C@H](OC5OCC(O)C(O)C5OC5OC(CO)C(O)C(O)C5O)C(C)(C)[C@@H]4CC[C@]32C)[C@H]1O)CO (some centres not stated)", "> 100 µM"],
  ["CC(C)c1c2[nH]c3ccccc3c2c(C(C)C)c2[nH]c3ccccc3c12", "> 82.8 µM"],
  ["O=C(O)CNC(=O)c1c2ccccc2nc2ccccc12", "> 100 µM"],
  ["CCN(c1cccc(NC(=S)Nc2ccccc2N(CC)c2cc(-c3ccccc3)no2)c1)c1cc(-c2ccccc2)no1", "> 100 µM"]
]}

Would you mind listing TGI for each of the following compounds?
1. CCNC1=C(NC(=O)CC)C(=O)c2ccccc2C1=O
2. CC(C)=C/C=C1/CS(=O)(=O)C=C1C
3. COc1ccc(C=O)c(NC(=O)C(C)C)c1

1: > 100 µM; 2: > 100 µM; 3: > 10 µM

Value sought for every listed compound: TGI.
1. COc1cccc(N2C(=O)C3c4[nH]c5ccc(C)cc5c4C4CCC(C(C)(C)C)CC4C3C2=O)c1 (configuration not stated)
2. Cn1cncc1CC1COC(=O)C1C(O)c1ccccc1 (configuration not stated)
3. Cc1cc(O)c(C(C)C)cc1C1(c2cc(C(C)C)c(O)cc2C)OC(=O)c2ccccc21
4. C[CH2][Pb]([CH2]C)([CH2]C)[O]C(=O)c1ccc2ccccc2n1
5. O=C1NC(=S)N(c2ccccc2)C1=O
6. O=[As](O)(O)c1ccc(N=Nc2ccc(O)cc2)cc1
7. CC1(C)C2CCC13CS(=O)(=O)N1O[C@]13C(=O)O2 (some centres not stated)

8.78 µM
> 100 µM
6.3 µM
> 10 µM
> 100 µM
> 100 µM
> 100 µM

---

Tested on: K-562 leukemia
measurement_notes: NCI tumour cell line growth inhibition, 48 h
property_measured: TGI

{"columns": ["compound", "measured"],
 "data": [
  ["CC1(C)OCC(C(O)C2OC(C)(C)OC2/C=N\\O)O1 (stereo not drawn)", "> 100 µM"]
]}

I need TGI for every entry listed below, if you could help.
1. COc1ccc(OC)c(Cn2cc3c(c2)-c2oncc2CC3)c1
2. [N-]=[N+]=C1C(=O)C2CC3CC(C2)CC1C3
3. O=C(CC(=O)Nc1ccccc1)N/N=C/c1cc(N=Nc2ccc(Br)cc2)ccc1O
4. Cc1ccc(C2=Nc3ccccc3SC(c3cccc([N+](=O)[O-])c3)C2)cc1 (stereo not drawn)
5. CC1(C)OC2C(=O)C=C(COCc3ccccc3)C2O1 (stereo not drawn)
6. CCN(c1cccc(NC(=S)Nc2ccccc2N(CC)c2cc(-c3ccccc3)no2)c1)c1cc(-c2ccccc2)no1
7. c1ccc(CSCCc2ccncc2)cc1

1. > 57.8 µM
2. > 100 µM
3. > 10 µM
4. 23.8 µM
5. > 100 µM
6. > 100 µM
7. > 100 µM

Give me TGI for each of these compounds, listed below.
1. O=C(NC1CCCC1=O)c1ccccc1 (stereo not drawn)
2. COc1ccc(C(Cl)=C(c2ccc(OCCN(C)C)cc2)c2ccc(OCCN(C)C)cc2)cc1
3. CSC(=S)N/N=C(\C)c1cccc(C)n1
4. CSCCC(NC(=O)Cc1ccc(C(=O)c2ccccc2)cc1)C(=O)O (stereo not drawn)
5. COc1cc2c(cc1OC)C1(c3ccc(Cl)cc3)ON=C(c3ccccc3)N1CS2 (stereo not drawn)
6. COc1ccc(/C=N/NC(=O)Cn2c(-c3ccc(S(C)(=O)=O)cc3)nc3cc(Cl)ccc32)cc1

1. > 100 µM
2. 3.69 µM
3. > 7.8 µM
4. > 100 µM
5. > 100 µM
6. > 50 µM

Hi there! I need TGI for each item below, if you can.
1. COc1ccc2c(c1)CCN1CCc3cc(OC)c(OC)cc3CC21 (stereo not drawn)
2. CCOC(=O)c1ccc(C(=O)C(C(C)=O)C(=O)OC(C)(C)C)[nH]1 (stereo not drawn)
3. Fc1cccc(C2SCc3nc4ccccc4n32)c1F (stereo not drawn)
4. CC[C@@H](/C=C\CCC(=O)C[C@H](O)CCC=C(C)C)O[Si](C(C)C)(C(C)C)C(C)C

["> 100 µM", "> 100 µM", "> 100 µM", "> 100 µM"]

// each compound listed below needs its TGI
1. Cn1cc(-c2nonc2-c2cn(C)c3ccccc23)c2ccccc21
2. N#CN1CC[C@H](C(=O)Nc2ncc(-c3ccncc3)s2)C1
3. COc1ccc(N=C2C(=Nc3ccc(OC)cc3)N(c3ccccc3)C(=S)N2N=C=C2Sc3ccccc3N2C)cc1
4. Cc1ccc(CC(C)N)cc1 (stereo not drawn)
5. CC(C)C1=CC23CCC4C(C)(C(=O)O)CCCC4(C)C2CC1C1C(=O)N(c2ccc(C(=O)O)cc2)C(=O)C13 (stereo not drawn)
6. COc1cccc(N2C(=O)C3c4[nH]c5ccc(C)cc5c4C4CCC(C(C)(C)C)CC4C3C2=O)c1 (stereo not drawn)
7. Cc1ccc2c(=O)cc(-c3ccc(-c4ccccc4)s3)[nH]c2n1

1. > 100 µM
2. > 100 µM
3. > 100 µM
4. > 100 µM
5. > 100 µM
6. 7.67 µM
7. > 100 µM

Please give TGI for each item listed below.
1. CC(C)(C)c1cc(C2COC(c3cc(C(C)(C)C)c(O)c(C(C)(C)C)c3)CO2)cc(C(C)(C)C)c1O (stereo not drawn)
2. C#CCOc1cccc(Nc2ncnc3c(NC(=O)CCl)cccc23)c1
3. CCOP(=O)(OCC)C(C)(CC)NC (stereo not drawn)

> 100 µM
71.7 µM
> 100 µM

# map each compound to its TGI
1. Cc1ccc2nc(NC(=O)/C(Cc3nc4ccc(Cl)cc4[nH]c3=O)=N\NC(C)(C)C)sc2c1
2. CC(C)(C)CN1CCn2c(nc3c(N)nccc32)S1
3. Cc1ccc(S(=O)(=O)NCCSCCSCCNS(=O)(=O)c2ccc(C)cc2)cc1

1: > 100 µM; 2: 67.7 µM; 3: > 100 µM

Provide each entry's TGI from the list below.
1. Cc1cccc(NC(=O)c2sc3nc4c(cc3c2N)CN(Cc2ccccc2)CC4)c1C
2. CC(=O)Oc1ccccc1C(=O)/C=C/c1cccc([N+](=O)[O-])c1
3. Fc1ccccc1C1SCc2nc3cc4ccccc4cc3n21 (stereo not drawn)
4. CC1CN1c1c(C(=O)/C=C/c2ccccc2)c(-c2ccccc2)nn(C)c1=O (stereo not drawn)
5. COc1ccc(C(=O)c2[nH]c(Nc3ccc(Cl)cc3)c(C(=S)Nc3ccccc3)c2N)cc1

["> 50 µM", "> 100 µM", "> 100 µM", "50.4 µM", "> 100 µM"]

Dear colleague, could you please provide TGI for the compounds listed below?
1. CCCc1ccc(NCc2cc(OC)c(OC)c(OC)c2)cc1
2. Cc1c(C2=C(c3cn(C)c4ccccc34)C(=O)NC2=O)c2ccccc2n1C
3. CCN1C(=O)N(CC)C2C1NN=c1s/c(=C3\C(=O)N(CCc4ccccc4)c4ccccc43)c(=O)n12 (stereo not drawn)
4. c1ccc2c3c([nH]c2c1)C1CCCN1CC3 (stereo not drawn)
5. COc1cccc(NC(=O)C(C#N)=C(SC)SC)c1
6. CCOc1ccc(-n2nnc3c(N)nc(N)nc32)cc1
7. CC(C)(CC(O)C#N)/[N+]([O-])=[N+](\[O-])C(C)(C)CC(O)C#N (stereo not drawn)

1: 51.6 µM; 2: > 25 µM; 3: > 100 µM; 4: > 10 µM; 5: > 100 µM; 6: > 100 µM; 7: 42.5 µM

Values compiled from PubChem BioAssay (NCI).
